The reader will find AC50 measurements below, all made with Alpha-1A adrenergic receptor (Homo sapiens, UniProt P35348).
Sequence (P35348 whole entry): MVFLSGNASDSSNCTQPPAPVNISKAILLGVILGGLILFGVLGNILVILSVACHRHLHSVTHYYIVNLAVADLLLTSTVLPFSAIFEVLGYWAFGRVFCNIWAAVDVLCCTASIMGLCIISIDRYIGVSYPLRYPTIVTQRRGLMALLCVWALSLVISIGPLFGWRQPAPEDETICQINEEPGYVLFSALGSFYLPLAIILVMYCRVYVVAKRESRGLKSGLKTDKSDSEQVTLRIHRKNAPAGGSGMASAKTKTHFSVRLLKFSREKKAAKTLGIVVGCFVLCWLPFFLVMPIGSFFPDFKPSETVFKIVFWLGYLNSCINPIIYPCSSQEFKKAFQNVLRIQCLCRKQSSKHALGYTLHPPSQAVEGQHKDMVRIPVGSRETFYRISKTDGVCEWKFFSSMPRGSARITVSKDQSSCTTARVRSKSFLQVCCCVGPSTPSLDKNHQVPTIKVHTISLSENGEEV

Nc1nnc(-c2cccc(Cl)c2Cl)c(N)n1
11.1 µM
CCOC(=O)C1=C(C)NC(C)=C(C(=O)OC)C1c1cccc(Cl)c1Cl (stereo not given)
> 10 µM
O=C(O[C@H]1C[N+]2(CCCOc3ccccc3)CCC1CC2)C(O)(c1cccs1)c1cccs1 [ACLIDINIUM BROMIDE]
5.1 µM

**Q:** Find the measured AC50 of `NCC1(CC(=O)O)CCCCC1` and report it.
**A:** > 10 µM

**Q:** Find the measured AC50 of COc1ccc2c3c1O[C@H]1C(=O)CC[C@H]4[C@@H](C2)N(C)CC[C@]314 [HYDROCODONE] and report it.
**A:** > 10 µM

**Q:** Find the measured AC50 of `Cc1ccc(-c2ncc(Cl)cc2-c2ccc(S(C)(=O)=O)cc2)cn1` and report it.
**A:** > 10 µM

**Q:** Find the measured AC50 of `Cc1ccc(O)c([C@H](CCN(C(C)C)C(C)C)c2ccccc2)c1` and report it.
**A:** > 10 µM

**Q:** Find the measured AC50 of N=C(N)NC(=O)c1nc(Cl)c(N)nc1N [AMILORIDE] and report it.
**A:** > 10 µM

The measurements presented in this section are drawn from ChEMBL document CHEMBL5291721.
